Cited source: the supplement of paper PMC6757056

B1: library; a variant is named by its letters at N, in order (parent)
chain: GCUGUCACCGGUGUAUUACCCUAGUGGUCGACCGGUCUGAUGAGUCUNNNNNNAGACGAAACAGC

# Variants of: B1
# protocol: normalized RNA/DNA level without ligand (relative to sTRSVctl = 100) (log10 (% of sTRSVctl)); ligand: hypoxanthine (xanthine aptamer); higher = less ribozyme self-cleavage, higher mRNA level
# protocol.conditions: HEK293T, reporter: mCherry (pCS4076), ligand present: no
readout.name: normalized RNA/DNA level without ligand (log10)
Give the value as a plain number.

Entry GCUGUCACCGGUGUAUUACCCUAGUGGUCGACCGGUCUGAUGAGUCUCUAAAUAGACGAAACAGC [CUAAAU] needs its normalized RNA/DNA level without ligand (log10) filled in; supply it.
1.82

Specify normalized RNA/DNA level without ligand (log10) for GCUGUCACCGGUGUAUUACCCUAGUGGUCGACCGGUCUGAUGAGUCUUGCUAAAGACGAAACAGC [UGCUAA] and stop.
1.83

Identify measured normalized RNA/DNA level without ligand (log10) corresponding to GCUGUCACCGGUGUAUUACCCUAGUGGUCGACCGGUCUGAUGAGUCUCUCUAAAGACGAAACAGC [CUCUAA]
1.8

Give me measured normalized RNA/DNA level without ligand (log10), please, for this variant: GCUGUCACCGGUGUAUUACCCUAGUGGUCGACCGGUCUGAUGAGUCUGUUGAUAGACGAAACAGC [GUUGAU]
1.79

Tell me measured normalized RNA/DNA level without ligand (log10) for GCUGUCACCGGUGUAUUACCCUAGUGGUCGACCGGUCUGAUGAGUCUGACUUGAGACGAAACAGC [GACUUG] please.
1.5

Return normalized RNA/DNA level without ligand (log10) (reported value) for this variant: GCUGUCACCGGUGUAUUACCCUAGUGGUCGACCGGUCUGAUGAGUCUAAUUGUAGACGAAACAGC [AAUUGU]
1.71

Find the measured normalized RNA/DNA level without ligand (log10) of GCUGUCACCGGUGUAUUACCCUAGUGGUCGACCGGUCUGAUGAGUCUGAAUAGAGACGAAACAGC [GAAUAG] and report it.
1.35

Kindly indicate its recorded normalized RNA/DNA level without ligand (log10). Item: GCUGUCACCGGUGUAUUACCCUAGUGGUCGACCGGUCUGAUGAGUCUCAACCGAGACGAAACAGC [CAACCG]
1.89

Please give measured normalized RNA/DNA level without ligand (log10) of the following entry: GCUGUCACCGGUGUAUUACCCUAGUGGUCGACCGGUCUGAUGAGUCUAACGGCAGACGAAACAGC [AACGGC]
1.82

Supply recorded normalized RNA/DNA level without ligand (log10) for GCUGUCACCGGUGUAUUACCCUAGUGGUCGACCGGUCUGAUGAGUCUUCUGACAGACGAAACAGC [UCUGAC] here.
1.81

Determine its reported normalized RNA/DNA level without ligand (log10): GCUGUCACCGGUGUAUUACCCUAGUGGUCGACCGGUCUGAUGAGUCUUAGAUAAGACGAAACAGC [UAGAUA]
1.82

Recall and state the measured normalized RNA/DNA level without ligand (log10) for GCUGUCACCGGUGUAUUACCCUAGUGGUCGACCGGUCUGAUGAGUCUCAGCUAAGACGAAACAGC [CAGCUA] .
1.65

For the variant GCUGUCACCGGUGUAUUACCCUAGUGGUCGACCGGUCUGAUGAGUCUCUUAAUAGACGAAACAGC [CUUAAU] , give its measured normalized RNA/DNA level without ligand (log10) value.
1.76

Annotate the variant GCUGUCACCGGUGUAUUACCCUAGUGGUCGACCGGUCUGAUGAGUCUCAAGAAAGACGAAACAGC [CAAGAA] with its measured normalized RNA/DNA level without ligand (log10).
1.7

Complete the entry with normalized RNA/DNA level without ligand (log10) for GCUGUCACCGGUGUAUUACCCUAGUGGUCGACCGGUCUGAUGAGUCUGACCUUAGACGAAACAGC [GACCUU]
1.89

Quick one: give measured normalized RNA/DNA level without ligand (log10) for GCUGUCACCGGUGUAUUACCCUAGUGGUCGACCGGUCUGAUGAGUCUCUAGUAAGACGAAACAGC [CUAGUA]
1.8

Give normalized RNA/DNA level without ligand (log10) for the following variant: GCUGUCACCGGUGUAUUACCCUAGUGGUCGACCGGUCUGAUGAGUCUAGACCCAGACGAAACAGC [AGACCC]
1.92

Please report the measured normalized RNA/DNA level without ligand (log10) for GCUGUCACCGGUGUAUUACCCUAGUGGUCGACCGGUCUGAUGAGUCUUACCAAAGACGAAACAGC [UACCAA]
1.84

For GCUGUCACCGGUGUAUUACCCUAGUGGUCGACCGGUCUGAUGAGUCUGUAAACAGACGAAACAGC [GUAAAC] , write its normalized RNA/DNA level without ligand (log10).
1.74

Please list normalized RNA/DNA level without ligand (log10) recorded for the variant GCUGUCACCGGUGUAUUACCCUAGUGGUCGACCGGUCUGAUGAGUCUUACAUCAGACGAAACAGC [UACAUC]
2

Give the reported value of normalized RNA/DNA level without ligand (log10) for this record: GCUGUCACCGGUGUAUUACCCUAGUGGUCGACCGGUCUGAUGAGUCUCGCUCAAGACGAAACAGC [CGCUCA]
1.91

Return the recorded normalized RNA/DNA level without ligand (log10) value; entry: GCUGUCACCGGUGUAUUACCCUAGUGGUCGACCGGUCUGAUGAGUCUAAAGCUAGACGAAACAGC [AAAGCU]
1.85
